Tested on: epithelial monolayers
Experiment notes: Peptide-mediated changes in trans-epithelial electrical resistance (TEER), permeation across epithelial monolayers
Type: cell-based
Condition label: measured by peptide-mediated changes in TEER
No end group written: not given here.
Measured endpoint: Effects (activity to enhance permeation across epithelial monolayers)

• RKKRRQRRRPPQCAAVALLPAVLLALLAP-amide (SEQ ID NO: 1) (RKKRRQRRRPPQCAAVALLPAVLLALLAP-NH2) [PN0028] = +
• RQIKIWFQNRRMKWKK-amide (SEQ ID NO: 2) (RQIKIWFQNRRMKWKK-NH2) [PN0058] = +
• RRRRRRR (SEQ ID NO: 6) [PN0071] = −
• GRKKRRQRRRPQ-amide (SEQ ID NO: 5) (GRKKRRQRRRPQ-NH2) [PN0069] = −
